# measured target: human PCSK9 / human LDLR EGFa domain interaction (Homo sapiens (Human))
# Sequence (Q8NBP7 153-692): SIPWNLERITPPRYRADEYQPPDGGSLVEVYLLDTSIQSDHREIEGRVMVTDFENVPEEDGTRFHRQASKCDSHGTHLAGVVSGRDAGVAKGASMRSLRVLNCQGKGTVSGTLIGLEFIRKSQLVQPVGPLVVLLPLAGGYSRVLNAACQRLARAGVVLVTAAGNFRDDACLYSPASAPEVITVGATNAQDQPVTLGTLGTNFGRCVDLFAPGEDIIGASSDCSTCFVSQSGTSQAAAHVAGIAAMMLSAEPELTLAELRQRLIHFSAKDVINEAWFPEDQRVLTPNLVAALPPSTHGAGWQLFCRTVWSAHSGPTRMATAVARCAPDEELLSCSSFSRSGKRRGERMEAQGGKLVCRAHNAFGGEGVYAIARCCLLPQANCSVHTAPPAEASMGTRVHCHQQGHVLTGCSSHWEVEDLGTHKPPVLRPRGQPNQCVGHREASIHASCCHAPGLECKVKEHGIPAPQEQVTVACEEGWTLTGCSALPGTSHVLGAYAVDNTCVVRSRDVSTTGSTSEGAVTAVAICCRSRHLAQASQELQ
# Sequence (Q8NBP7 31-152 partner): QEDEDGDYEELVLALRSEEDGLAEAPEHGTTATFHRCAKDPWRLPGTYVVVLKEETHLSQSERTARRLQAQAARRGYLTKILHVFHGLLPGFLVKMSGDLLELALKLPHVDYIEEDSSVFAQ
# run description: TR-FRET assay of inhibition of the PCSK9-LDLR protein-protein interaction
# Type: binding
# measurement context: TR-FRET, 20 nM human PCSK9, 20 nM human LDLR EGFa domain, 2 hours room temperature; read-out: IC50
# Method: A time-resolved fluorescence resonance energy (TR-FRET) assay was used to measure inhibition of the PCSK9-LDLR protein-protein interaction. […] Compounds were tested in dose-response and concentrations giving half-maximal inhibition calculated using a 4-parameter fit equation.
Starred links: 1 amine or outer side, 2 acyl side, 3 side chain; linkers in the order of their positions; H or OH if unused. Positions of bridges follow the written chain, without caps; N, C: chain ends. Non-standard residues stand in square brackets, D forms with d. Residues, ends and D or L forms follow the SMILES beside them. mXylylene = c1cc(C[*:1])cc(C[*:2])c1; NMeL = CN[C@@H](CC(C)C)C(=O)O; αMeP = C[C@@]1(C(=O)O)CCCN1; Mpa = O=C(O)CCS
reported property: IC50

1. NCCCC[C@@H]1NC(=O)CCCn2cc(nn2)CC[C@@H](C(N)=O)NC(=O)[C@@H]2CCCN2C(=O)[C@H](Cc2ccc(O)cc2)NC(=O)[C@H](Cc2c[nH]cn2)NC(=O)[C@H](CC(=O)O)NC(=O)[C@H](Cc2c[nH]c3ccc(F)cc23)NC(=O)[C@H](Cc2c[nH]c3ccc(F)cc23)NC(=O)CNC1=O    100 to 1000 nM

Next molecule, please.
Challenge: Tell me the measured IC50 of COc1ccc(C[C@@H]2NC(=O)[C@@H](CC(C)C)NC(=O)[C@H](CC(C)C)NC(=O)CCSCc3cccc(c3)CSC[C@@H](C(N)=O)NC(=O)[C@]3(C)CCCN3C(=O)[C@H](Cc3ccc(OC)cc3)NC(=O)[C@H]([C@@H](C)OC)NC(=O)[C@H](CC(C)C)N(C)C(=O)[C@H](Cc3ccc(OC)cc3)NC2=O)cc1 [Compound 037] ([Mpa]L[dL]Y(Me)Y(Me)[NMeL]T(Me)Y(Me)[αMeP]C-NH2; linker 1-10 via mXylylene) , please.
Response given: 100 to 1000 nM

Data provenance is patent US11530244B2.
